- assay.name: chemical genetic growth profiling, strain panel (AID 1159580);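 note: tested at 20 µM; growth read once vehicle control cultures reached saturation at 30 °C; 1 = growth at the plate median or of vehicle wells; lower values mean less growth of the strain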
- condition: S. cerevisiae deletion strains, growth OD, locus YCL011C, strain gbp2, hits give low values
The whole screen tested about 5,500 compounds, of which about 2,000 (36%) were called active. Inconclusive results (about 18%) are left out. Some of the results follow.
attribute.measured: normalized growth
API note: the answer field is a bare number with no unit suffix.

Per the records, this molecule ( CC(=O)c1ccc2c(c1)N(CCCN(C)C)c1ccccc1S2 ) has normalized growth equal to 0.976

The molecule identified as O=c1n(CCCN2CCN(c3cccc(Cl)c3)CC2)nc2ccccn12 registered its normalized growth at 0.976

Briefly, normalized growth measured for C[C@]12C=CC(=O)C=C1CCC1C2C(=O)C[C@@]2(C)C1CC[C@]2(O)C(=O)CO (stereo partly specified) : 1

The molecule listed as COc1cc(OC)c2c(=O)c(-c3ccc4c(c3)OCO4)coc2c1 has a reported normalized growth of 0.981

Lab note: measured normalized growth of Cn1c([N+](=O)[O-])cnc1COC(N)=O was 1.01

According to the records, this molecule CC1=C2CCC3C(CC[C@]4(C)C(=O)CCC34)[C@@]2(C)CCC1=O (stereo partly specified) displays normalized growth of 0.968

For C=C1CC2C(CCC3(C)C(=O)CCC23)C2(C)C=CC(=O)C=C12 (stereo unspecified) the molecule record lists normalized growth as 0.935

Per the record, CC1(C)C=Cc2c(cc3occ(-c4ccc5c(c4)OCO5)c(=O)c3c2O)O1 has normalized growth of 0.897

Looking up C[C@]12CCC3C(CC[C@H]4CC(=O)CC[C@]34C)C1CCC2=O (stereo partly specified) , I found its normalized growth recorded as 0.86

The molecule listed as OCCN1CCN(CCCN2c3ccccc3Sc3ccc(Cl)cc32)CC1 has a reported normalized growth of 0.997

Value of measured normalized growth for the entry CN1CCN(CCCN2c3ccccc3Sc3ccc(Cl)cc32)CC1 : 0.772

* * *

- assay.name: chemical genetic growth profiling, strain panel (AID 1159580);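 note: tested at 20 µM; growth read once vehicle control cultures reached saturation at 30 °C; 1 = growth at the plate median or of vehicle wells; lower values mean less growth of the strain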
- condition: S. cerevisiae deletion strains, growth OD, locus YNL271C, strain bni1, hits give low values
Hit rate of the full screen: of about 5,500 compounds, about 2,000 (36%) were called active. Another 18% or so got no clear call; they are omitted. The list shows a part of the results.
Exercise: state measured normalized growth for each of the molecules provided.
API doc: respond with a numeric literal and nothing else, no unit.

Recorded normalized growth (molecule C[C@]12CCC3c4ccc(O)cc4CCC3C1CC[C@@H]2OC(=O)CCC1CCCC1 (stereo partly specified) ): 0.999

Consider CCCCC(=O)O[C@H]1CCC2C3CCc4cc(O)ccc4C3CC[C@@]21C (stereo partly specified) . Its measured normalized growth is 1

Documented normalized growth of C[N+]1(C)C2CC[C@H]1CC(OC(=O)C(O)c1ccccc1)C2 (stereo partly specified) : 1.02

# normalized growth (molecule: Cn1cnc([N+](=O)[O-])c1Sc1ncnc2nc[nH]c12 ) is 0.993

Input COc1cc2ccc(=O)oc2c(OC)c1OC . Output normalized growth: 1.02

Given item CC(=O)Oc1ccc2c(c1)CCC1C2CC[C@@]2(C)C1CC[C@@H]2OC(C)=O (stereo partly specified) , the value recorded as its normalized growth is 0.996

Item: CCCCCN=C(N)N/N=C\c1c[nH]c2ccc(OC)cc12 | normalized growth: 1.02

Item: CCCCC(=O)N(Cc1ccc(-c2ccccc2-c2nn[nH]n2)cc1)[C@H](C(=O)O)C(C)C | normalized growth: 0.98

What the record says about O=C(O)c1cc2cc(Cl)ccc2[nH]1 : normalized growth is 0.969

The measured normalized growth associated with O=[N+]([O-])/N=C1/NCCN1Cc1ccc(Cl)cc1 reads 0.992

The recorded normalized growth for COc1cc(O)c(C(=O)O)c(O)c1 is 0.945

* * *

- assay.name: chemical genetic growth profiling, strain panel (AID 1159580);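 note: tested at 20 µM; growth read once vehicle control cultures reached saturation at 30 °C; 1 = growth at the plate median or of vehicle wells; lower values mean less growth of the strain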
- condition: S. cerevisiae deletion strains, growth OD, locus YMR231W, strain pep5, hits give low values
The campaign covered roughly 5,500 compounds. About 2,000 (36%) were called active. About 18% were inconclusive and are not listed. Some of the results follow.
Kindly state normalized growth for each of the entries shown.

Notebook: COc1cc(OC)c2c(c1Cl)OC1(C2=O)C(O)=CC(=O)CC1C (stereo unspecified) , normalized growth read as 0.995 (inactive)

The reported normalized growth of the compound COc1cc(OC)c2c(=O)c(-c3ccc4c(c3)OCO4)coc2c1 was 0.987 (inactive)

Lab note: measured normalized growth of CC1=C(C(=O)O)N2C(=O)[C@@H](NC(=O)[C@H](N)C3=CCC=CC3)C2SC1 (stereo partly specified) was 1 (inactive)

Given item COc1cc(O)c(C(=O)O)c(O)c1 , the value recorded as its normalized growth is 0.984 (inactive)

// COc1ccc2c(=O)c(-c3cc4c(cc3OC)OCO4)coc2c1 : normalized growth value = 1.01 (inactive)

Please fill in: normalized growth reported for O=c1c(-c2ccc3c(c2)OCO3)coc2cc(O)ccc12 = 1 (inactive)

Note to self: normalized growth recorded for CC(C)=CCc1c(O)cc2occ(-c3ccc4c(c3)OCO4)c(=O)c2c1O was 0.993 (inactive)

The recorded normalized growth for entry COc1cc2c(cc1-c1coc3c4c(c(OC)cc3c1=O)OC(C)(C)C=C4)OCO2 equals 1.01 (inactive)

normalized growth for COc1c2c(cc3occ(-c4ccc5c(c4)OCO5)c(=O)c13)OC(C)(C)C=C2 is 1.01 (inactive)

The reported normalized growth of the compound CC(=O)Oc1ccc2c(c1)CCC1C2CCC2(C)C1CC(OC(C)=O)C2OC(C)=O (stereo unspecified) was 0.996 (inactive)

Field normalized growth (entry CCOc1ccc(Cc2nccc3cc(OCC)c(OCC)cc23)cc1OCC ) reads 0.979 (inactive)

* * *

- assay.name: chemical genetic growth profiling, strain panel (AID 1159580);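 note: tested at 20 µM; growth read once vehicle control cultures reached saturation at 30 °C; 1 = growth at the plate median or of vehicle wells; lower values mean less growth of the strain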
- condition: S. cerevisiae deletion strains, growth OD, locus YCL069W, strain vba3, hits give low values
In all, about 5,500 compounds went through this assay and about 2,000 (36%) were called active. Roughly 18% stayed inconclusive and do not appear here. Some of the results follow.
attribute.measured: normalized growth
Lab note: jot down the number only; don't add units.

The molecule listed as CC(C(=O)O)c1ccc(N2Cc3ccccc3C2=O)cc1 (configuration not stated) has a reported normalized growth of 0.994

The molecule CC(=O)c1ccc2c(c1)N(CCCN(C)C)c1ccccc1S2 showed normalized growth equal to 0.988

Recorded result, CN1Cc2c(N)cccc2C(c2ccccc2)C1 (configuration not stated) , normalized growth: 1.01

Form: molecule = FC(F)(F)COCC(F)(F)F ; normalized growth = 1.03

Form: molecule = c1coc(CNc2ncnc3nc[nH]c23)c1 ; normalized growth = 0.999

So, COc1ccc2c(=O)c(CC(=O)O)coc2c1 ? Its normalized growth was 0.975

So, CC(C)=CCOc1cc2oc(=O)ccc2cc1O ? Its normalized growth was 0.94

Entry under test: O=C(O)c1cccc(O)c1O . Its normalized growth was 1.02

According to the records, this molecule COc1ccc2ccc(=O)oc2c1CC=C(C)C displays normalized growth of 0.919

O=c1[nH]cnc2nc[nH]c12 has a reported normalized growth of 1.01

Sample CC(C)=CCC1=C(O)c2ccccc2C(=O)C1=O ; normalized growth observed: 0.675

In plain terms, N#C/C(=C\c1ccc(O)cc1)C(=O)O has a documented normalized growth of 0.996

Lab note: measured normalized growth of C[C@H]1C(=O)O[C@@H]2CCN3CC=C(COC(=O)[C@](C)(O)[C@]1(C)O)[C@H]23 was 0.995

Data point: O=c1cc(-c2ccc(O)cc2)oc2cc(O[C@@H]3O[C@H](CO)[C@@H](O)[C@H](O)[C@H]3O[C@@H]3OC[C@](O)(CO)[C@H]3O)cc(O)c12 ; normalized growth = 0.994

The reported normalized growth of the molecule CCCC(=O)Nc1ncnc2c1ncn2C1O[C@@H]2COP(=O)(O)O[C@H]2[C@H]1OC(=O)CCC (some centres not stated) was 0.974

// field: normalized growth; key: COc1cc(OC)c2c(c1Cl)OC1(C2=O)C(O)=CC(=O)CC1C (configuration not stated) ; value = 1.01

So, Cc1cc(O)c2c(c1O)C(=O)c1c(O)cc(C)c(O)c1C2=O ? Its normalized growth was 0.966

// normalized growth value for C[C@]12C=CC(=O)C=C1CCC1C2CC[C@]2(C)C(=O)CCC12 (some centres not stated) : 0.981

Measured normalized growth of CCCCCN=C(N)N/N=C\c1c[nH]c2ccc(OC)cc12 : 1.02

Kindly note the recorded normalized growth for CN(C)c1nc(N(C)C)nc(N(C)C)n1 , which is 0.986

Measured normalized growth of CCNc1nc(Cl)nc(NC(C)C)n1 : 0.997

The molecule identified as Cn1nnnc1SCC1=C(C(=O)O)N2C(=O)C(NC(=O)C(OC=O)c3ccccc3)C2SC1 (configuration not stated) registered its normalized growth at 0.992

Data point: O=C1c2ccccc2C(=O)c2c(O)c(O)cc(O)c21 ; normalized growth = 0.426

Field normalized growth (entry CC(C)=CCOc1c2occc2cc2ccc(=O)oc12 ) reads 0.912

Notebook: COc1cc2ccc(=O)oc2c(OC)c1OC , normalized growth read as 0.975

Consider Cc1cccc(N(C)C(=S)Oc2ccc3ccccc3c2)c1 . Its measured normalized growth is 0.989

Input CC(=O)OC1CCC2C3CCc4cc(O)ccc4C3CCC12C (configuration not stated) . Output normalized growth: 1.02

get_value(item= CC(C)(O)CC[C@@H](O)[C@](C)(O)C1CC[C@@]2(O)C3=CC(=O)C4C[C@@H](O)[C@@H](O)C[C@]4(C)C3CC[C@]12C (some centres not stated) , readout=normalized growth) returns 1.03

Field normalized growth (entry O=C1c2ccccc2C(=O)c2c1ccc(O)c2O ) reads 0.52

Kindly note the recorded normalized growth for CC(C)CCCC(C)[C@H]1CCC2C3CC[C@H]4CC(=O)CC[C@]4(C)C3CC[C@@]21C (some centres not stated) , which is 0.992

The recorded normalized growth for O=C(CCCN1CC=C(n2c(=O)[nH]c3ccccc32)CC1)c1ccc(F)cc1 is 0.992

Record O=c1[nH]c2ccccc2n1C1CCN(CCCC(c2ccc(F)cc2)c2ccc(F)cc2)CC1 . Reported normalized growth: 1

Notebook: COc1cc2ccc(=O)oc2cc1O , normalized growth read as 0.98

Given item O=c1ccc2cc(O[C@@H]3O[C@H](CO)[C@@H](O)[C@H](O)[C@H]3O)c(O)cc2o1 , the value recorded as its normalized growth is 0.977

normalized growth reported for this molecule CNC(=O)CSP(=S)(OC)OC : 1.02

normalized growth reported for this molecule OCCN1CCN(CCCN2c3ccccc3Sc3ccc(Cl)cc32)CC1 : 1.01

Short answer for O=C1c2ccc(O)c(O)c2C(=O)c2c(O)ccc(O)c21 : normalized growth was 0.751

normalized growth measured on CSCCC(NC=O)C(=O)NC(CC(C)C)C(=O)NC(Cc1ccccc1)C(=O)O (configuration not stated) = 1.01

normalized growth measured on N#Cc1ccc2c(c1)N(CCCN1CCC(O)CC1)c1ccccc1S2 = 0.993

Notebook: CCC(=O)O[C@H]1CCC2C3CCc4cc(O)ccc4C3CC[C@@]21C (some centres not stated) , normalized growth read as 0.997

The molecule listed as C[C@]12CCC3C(CC[C@H]4CC(=O)CC[C@]34C)C1CCC2=O (some centres not stated) shows normalized growth equal to 0.979

// field: normalized growth; key: Cn1cnc([N+](=O)[O-])c1Sc1ncnc2nc[nH]c12 ; value = 1.02

Form: molecule = COc1cc(O)c(C(=O)O)c(O)c1 ; normalized growth = 0.99

// normalized growth value for C[C@]12C=CC(=O)C=C1CCC1C2C(=O)C[C@@]2(C)C1CC[C@]2(O)C(=O)CO (some centres not stated) : 0.996

For reference, reported normalized growth for O=C(/C=C/C(=O)Oc1ccccc1C(=O)O)Oc1ccccc1C(=O)O stands at 0.99

Entry O=C(O)c1cc2cc(Cl)ccc2[nH]1 ; normalized growth = 0.993

Measured normalized growth of Cc1cc(C)nc(NS(=O)(=O)c2ccc(N)cc2)n1 : 0.969
